Tested on: cucumber downy mildew
Experiment: protectant activity in vivo against cucumber downy mildew
Settings: Cucumis sativus, 168 h, read-out: control effect against cucumber downy mildew (%), 400 mg/L; protectant activity
Documented pest or weed control at 400 µg/mL across a set of compounds
Entry rule: numbers only, all in %.

The following compounds have reported results that may help.
FC(F)c1ncnc(NCCc2ccc(Oc3ccc(Cl)cc3)cc2)c1Cl    100
Cc1ncnc(NC(C)c2ccc(Oc3nc(Cl)c(Cl)cc3Cl)cc2)c1Cl (stereo not shown) [CK29, reference compound]    98
CCc1ncnc(OCCc2ccc(Oc3ccccc3)cc2)c1Cl [CK13, reference compound]    85

Can you share its pest or weed control at 400 µg/mL? I mean this compound: CCC(Nc1ncnc(C)c1Cl)c1ccc(OC(F)F)cc1 (stereo not shown) [diflumetorim, reference compound]
100
